Values from PubChem BioAssay

test: basal MM1S mitochondrial membrane potential changes, profiling panel, cell-based, JC-1 fluorescence, 24 h, 100 nL compound (AID 1170); conditions: higher = more signal; further: test concentration not given here
Please mark class 1 if the recorded z-score is equal to or greater than -0.5, and class 0 if it falls below.

Below, 5 compounds whose answers are already recorded.
INSERT INTO measurements (compound, classification) VALUES
  ('O=C1O[C@H](c2ccccc2)[C@H](c2ccccc2)N2[C@H]1[C@@H](C(=O)N1CCCCCCC1)[C@]1(C(=O)Nc3ccc(C#CC4(O)CCCCCC4)cc31)[C@H]2c1ccccc1OCCO', 'class 0'),
  ('C=CCN1C(=O)[C@@]2(O[C@@H](CCO)[C@H]([Si](C)(C)c3ccc(OC)cc3)[C@H]2C)c2cc(N3CCOC3=O)ccc21', 'class 0'),
  ('CCCNC(=O)[C@@]1(Sc2ccc(C)cc2)CC(=O)N(C2CCCCC2)[C@@H]1c1ccc(CO)cc1I', 'class 0'),
  ('C=C/C=C/[C@@H]1C(=C)CN([C@@H](Cc2ccccc2)C(=O)OC)[C@H]1[C@@H](O)Cc1ccccc1', 'class 0'),
  ('COc1ccc(C#Cc2ccc3c(c2)[C@]2(C(=O)N3)[C@H](C(=O)Nc3nc4ccccc4s3)[C@H]3C(=O)O[C@H](c4ccccc4)[C@H](c4ccccc4)N3[C@@H]2c2ccccc2OCCO)cc1', 'class 0');

Ask | Is z-score at least -0.5? Consider CCOC(=O)C[C@H]1[C@H](OC(=O)c2ccc(-c3ccccc3)cc2)[C@@H](NC(=O)CC(C)C)c2cc(OCCCO)ccc2N1C(=O)c1ccccc1
Reply | class 1

Ask | Is z-score at least -0.5? Consider Cc1cccc([C@H]2C[C@H]3C(Br)=C[C@@H]2C(=O)[C@]32CO2)c1
Reply | class 1

Ask | Is z-score at least -0.5? Consider COCCCNC(=O)[C@@]1(c2ccc([N+](=O)[O-])cc2)CC(=O)N(CC23CC4CC(CC(C4)C2)C3)[C@@H]1c1ccc(CO)cc1I
Reply | class 0

Ask | Is z-score at least -0.5? Consider O=C1N(CCS(=O)(=O)c2ccccc2)Cc2ccccc2[C@@H]2OC(c3ccc(OCCCO)cc3)=N[C@]12CCS(=O)(=O)c1ccccc1
Reply | class 0
